procedure-summary: in vivo
stated-conditions: Sprague-Dawley, rat, po, 10 mg/kg
measured-metric: MRT last (h)
Numbers only, in h.

[
  {
    "structure-smiles-string": "C=CC(=O)N[C@H]1CCOC[C@H]1Nc1ncc2cc(-c3c(Cl)c(OC)cc(OC)c3Cl)ccc2n1",
    "MRT last (h)": 1.8
  }
]

Now, please, on to the next molecule.
The measured MRT last associated with `CC#CC(=O)Nc1cc(-c2cc3c(cn2)cc(-c2c(Cl)c(OC)cc(OC)c2Cl)c(=O)n3CC)c(OC)cc1N1C[C@H]2C[C@@H]1CO2` reads 2.4

---

procedure-summary: in vitro
stated-conditions: rat, plasma
Task for the reader: assign each of the following molecules its reported half-life.

[
  {
    "structure-smiles-string": "CC#CC(=O)Nc1cc(-c2cc3c(cn2)cc(-c2c(Cl)c(OC)cc(OC)c2Cl)c(=O)n3CC)c(OC)cc1N1C[C@H]2C[C@@H]1CO2",
    "measured-metric": "half-life",
    "result": "> 289 min"
  }
]

Now, please, on to the next molecule.
The measured half-life associated with `C=CC(=O)N[C@H]1CCOC[C@H]1Nc1ncc2cc(-c3c(Cl)c(OC)cc(OC)c3Cl)ccc2n1` reads > 289 min

---

procedure-summary: in vitro
stated-conditions: beagle, dog, liver microsomes
measured-metric: half-life (min)
Answers are plain numbers, in min.

The measured half-life associated with `CC#CC(=O)Nc1cc(-c2cc3c(cn2)cc(-c2c(Cl)c(OC)cc(OC)c2Cl)c(=O)n3CC)c(OC)cc1N1C[C@H]2C[C@@H]1CO2` reads 27.3

---

Task for the reader: assign each of the following compounds its reported half-life.
procedure-summary: in vitro
stated-conditions: cynomolgus monkey, plasma

[
  {
    "structure-smiles-string": "CC#CC(=O)Nc1cc(-c2cc3c(cn2)cc(-c2c(Cl)c(OC)cc(OC)c2Cl)c(=O)n3CC)c(OC)cc1N1C[C@H]2C[C@@H]1CO2",
    "result": "> 4.82 h"
  }
]

Now, please, on to the next compound.
The measured half-life associated with `C=CC(=O)N[C@H]1CCOC[C@H]1Nc1ncc2cc(-c3c(Cl)c(OC)cc(OC)c3Cl)ccc2n1` reads > 4.82 h

---

Task for the reader: assign each of the following compounds its reported half-life.
procedure-summary: in vitro
stated-conditions: human, liver microsomes
Give bare numbers, in min.

[
  {
    "compound": "C=CC(=O)N[C@H]1CCOC[C@H]1Nc1ncc2cc(-c3c(Cl)c(OC)cc(OC)c3Cl)ccc2n1 [FISOGATINIB]",
    "unit-of-measurement": "min",
    "half-life": 25.2
  }
]

The measured half-life associated with `CC#CC(=O)Nc1cc(-c2cc3c(cn2)cc(-c2c(Cl)c(OC)cc(OC)c2Cl)c(=O)n3CC)c(OC)cc1N1C[C@H]2C[C@@H]1CO2` reads 40.1

---

procedure-summary: in vivo
stated-conditions: Sprague-Dawley, rat, po, 10 mg/kg
measured-metric: Tmax (h)
Answers are plain numbers, in h.

The measured Tmax associated with `CC#CC(=O)Nc1cc(-c2cc3c(cn2)cc(-c2c(Cl)c(OC)cc(OC)c2Cl)c(=O)n3CC)c(OC)cc1N1C[C@H]2C[C@@H]1CO2` reads 1.4

---

procedure-summary: in vivo
stated-conditions: Sprague-Dawley, rat, po, 10 mg/kg
measured-metric: half-life (min)
Give bare numbers, in min.

The measured half-life associated with `CC#CC(=O)Nc1cc(-c2cc3c(cn2)cc(-c2c(Cl)c(OC)cc(OC)c2Cl)c(=O)n3CC)c(OC)cc1N1C[C@H]2C[C@@H]1CO2` reads 2

---

procedure-summary: in vitro
stated-conditions: mouse, plasma
measured-metric: half-life (h)
One number for each entry, in h.

The measured half-life associated with `CC#CC(=O)Nc1cc(-c2cc3c(cn2)cc(-c2c(Cl)c(OC)cc(OC)c2Cl)c(=O)n3CC)c(OC)cc1N1C[C@H]2C[C@@H]1CO2` reads 3.33

---

Task for the reader: assign each of the following compounds its reported bioavailability.
procedure-summary: in vivo
stated-conditions: Sprague-Dawley, rat, po, 10 mg/kg
One number for each entry, in %.

[
  {
    "structure-smiles-string": "C=CC(=O)N[C@H]1CCOC[C@H]1Nc1ncc2cc(-c3c(Cl)c(OC)cc(OC)c3Cl)ccc2n1",
    "unit-of-measurement": "%",
    "bioavailability": 79.7
  }
]

Now, please, on to the next compound.
The measured bioavailability associated with `CC#CC(=O)Nc1cc(-c2cc3c(cn2)cc(-c2c(Cl)c(OC)cc(OC)c2Cl)c(=O)n3CC)c(OC)cc1N1C[C@H]2C[C@@H]1CO2` reads 55.4
